# key: entry, value: MFC
- Tested on: Trichoderma viride
- Experiment description: Fungicidal activity against Trichoderma viride Pers after 7 days by microtiter method
- Type: functional
- Assay conditions: 168 h
Form entry: value (µg/mL) — number only.

Past entries and their recorded results:
1. CCCCSc1ccc2c(cc1=O)[C@@H](N)CCc1cc(OC)c(OC)c(OC)c1-2: 2000
2. CCCSc1ccc2c(cc1=O)[C@@H](N)CCc1cc(OC)c(OC)c(OC)c1-2: 2000
3. O=C(/C=C/c1ccccc1)c1ccccc1: 500

Please look at the following compound next.
**Query** Read off the recorded MFC for `CCCCNC(=O)OCC#CI`
**Result** 100

* * *

- Tested on: Aspergillus versicolor
- Experiment description: microbe, parasite or virus in culture
- Format: functional
- Assay conditions: BAM8 ATCC 11730, 168 h
- Description: Antifungal activity against Aspergillus versicolor BAM8 ATCC 11730 after 7 days by microtiter method
Measurement name: MFC

Past entries and their recorded results:
1. CCCSc1ccc2c(cc1=O)[C@@H](N)CCc1cc(OC)c(OC)c(OC)c1-2: > 4000 µg/mL
2. COc1cc2c(c(OC)c1OC)-c1ccc(SC(C)C)c(=O)cc1[C@@H](NC(C)=O)CC2: > 4000 µg/mL

**Query** Read off the recorded MFC for `CCCCSc1ccc2c(cc1=O)[C@@H](N)CCc1cc(OC)c(OC)c(OC)c1-2`
**Result** > 4000 µg/mL
